assay: in vitro; conditions: human, pH 7.4, Km for formation of 6β-OHP
quantityMeasured: Km at 30 min (µM)
Output spec: scalar in µM, unitless text.

Sample CC(=O)[C@H]1CC[C@H]2[C@@H]3CCC4=CC(=O)CC[C@]4(C)[C@H]3CC[C@]12C ; Km at 30 min observed: 27.7

* * *

test: in vitro; conditions: human, pH 7.4, Km for formation of 16α-OHP
quantityMeasured: Km at 30 min (µM)
Output spec: scalar in µM, unitless text.

Sample CC(=O)[C@H]1CC[C@H]2[C@@H]3CCC4=CC(=O)CC[C@]4(C)[C@H]3CC[C@]12C [progesterone, Progesterone] ; Km at 30 min observed: 29.8
